Values compiled from patent EP1444982A1.

So I've got a bunch of compounds here, and I need their inhibition at 30 µM values.
Target: GSK3β (h) (Homo sapiens)
Sequence (P49841 whole entry): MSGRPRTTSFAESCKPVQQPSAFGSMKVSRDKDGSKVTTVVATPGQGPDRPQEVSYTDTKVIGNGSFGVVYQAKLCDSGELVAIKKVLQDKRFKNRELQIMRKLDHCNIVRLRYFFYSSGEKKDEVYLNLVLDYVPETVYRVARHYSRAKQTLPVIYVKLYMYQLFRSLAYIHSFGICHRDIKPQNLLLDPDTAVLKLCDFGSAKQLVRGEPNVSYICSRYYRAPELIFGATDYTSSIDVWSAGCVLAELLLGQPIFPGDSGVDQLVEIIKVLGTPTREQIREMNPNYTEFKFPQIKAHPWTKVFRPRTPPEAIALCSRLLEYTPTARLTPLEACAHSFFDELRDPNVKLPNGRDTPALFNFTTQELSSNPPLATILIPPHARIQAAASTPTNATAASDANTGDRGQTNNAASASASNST
Test: Kinase inhibition assay (33P-ATP, P30 filter, scintillation counting): GSK3β
Format: biochemical
Conditions: 30µM Testsubstanz (100 µM ATP); read-out: Hemmung von Kinasen in % GSK3β (h)
Give bare numbers, in %.

# annotated cases, reported inhibition at 30 µM shown
Cn1c(C#CCCO)nc2c(Sc3ccccc3)ncnc21
0
Fc1ccc(CSc2ncnc3[nH]cnc23)cc1
0
Cn1c(-c2ccccc2)nc2c(Sc3ccc(F)cc3)ncnc21
22

Look at each compound and report its inhibition at 30 µM.
1. Cn1cnc2c(Sc3ccc(F)cc3)ncnc21
2. Cn1c(-c2ccccc2)nc2c(-c3ccc(F)cc3)ncnc21
3. Cn1cnc2c(Nc3ccc(F)cc3)ncnc21
4. Fc1ccc(Cn2cnc3c(Sc4ccc(F)cc4)ncnc32)cc1
5. c1ccc(Sc2ncnc3[nH]ccc23)cc1

Reply:
0
26
14
8
11
